What pKd was measured for each of the following?
- assayed_target: T1, PDZD11, Q5EBL8
- T1 sequence (Q5EBL8 42-139, limits assumed, looked up): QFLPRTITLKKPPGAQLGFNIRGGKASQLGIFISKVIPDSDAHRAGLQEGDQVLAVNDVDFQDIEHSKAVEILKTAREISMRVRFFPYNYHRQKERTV
- test_name: holdup assay
- Set-up: key: below the threshold = too weak to quantify, mostly under pKd 3.1 to 4
- particulars: plain residues with an end cap or a label only (N-terminal biotin on a linker: ttds)
Lab note: record just the number, no unit beside it.

Reported pKd, binder PKTPPTDTSV [KIR3DL3, Q8N743] : ____
4.3

Reported pKd, binder STLTIFETAL [ABCC4, O15439] : ____
4.46

Recorded values, source paper PMC9482650.
